Biological target: MAPK14 (UniProt Q16539)
Sequence (Q16539 whole entry, looked up): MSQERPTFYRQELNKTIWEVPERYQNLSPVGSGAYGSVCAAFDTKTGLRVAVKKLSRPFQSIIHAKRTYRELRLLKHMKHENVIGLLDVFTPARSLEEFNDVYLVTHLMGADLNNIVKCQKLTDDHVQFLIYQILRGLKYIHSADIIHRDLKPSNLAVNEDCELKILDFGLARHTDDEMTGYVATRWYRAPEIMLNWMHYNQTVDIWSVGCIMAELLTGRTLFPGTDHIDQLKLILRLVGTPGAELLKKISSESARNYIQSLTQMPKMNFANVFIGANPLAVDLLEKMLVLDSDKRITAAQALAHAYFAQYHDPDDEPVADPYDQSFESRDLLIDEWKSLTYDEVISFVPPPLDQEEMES
Each entry below lists one item and its recorded IC50 value.

# recordSmiles, IC50
measured = [
    ("COc1ccc(C(F)(F)F)cc1NC(=O)Nc1ccc(Oc2cc(C)nc(NCCN(C)C)n2)c2ccccc12", "< 1 µM"),
    ("COc1ccc(C(F)(F)F)cc1NC(=O)Nc1ccc(Oc2cc(C)nc(NC3CC3)n2)c2ccccc12", "< 1 µM"),
    ("COc1ccc(OC(F)(F)F)cc1NC(=O)Nc1ccc(Oc2cc(C)nc(NCCN(C)C)n2)c2ccccc12", "< 1 µM"),
]
